Tested target: activated p38 (Homo sapiens, UniProt Q16539)
Construct: amplify the coding region of CSBP2 cDNA using a HeLa cell library
Sequence (Q16539 whole entry): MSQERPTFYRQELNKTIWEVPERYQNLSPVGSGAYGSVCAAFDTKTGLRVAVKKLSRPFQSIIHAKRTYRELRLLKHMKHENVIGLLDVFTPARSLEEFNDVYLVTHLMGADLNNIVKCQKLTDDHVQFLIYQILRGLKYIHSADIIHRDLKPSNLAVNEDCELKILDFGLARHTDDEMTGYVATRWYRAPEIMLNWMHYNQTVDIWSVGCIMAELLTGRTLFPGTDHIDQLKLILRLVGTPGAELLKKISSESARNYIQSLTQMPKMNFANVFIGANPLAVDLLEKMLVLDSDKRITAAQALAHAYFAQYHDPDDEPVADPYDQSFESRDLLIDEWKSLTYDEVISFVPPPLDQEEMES
Experiment: p38 inhibition assay: inhibition of phosphorylation of EGF receptor peptide
Experimental parameters: activated p38 5 nM, EGF receptor peptide 200 μM, ATP 100 μM, 30° C, 30 minutes
pIC50: −log10 of the molar value.
Reported property: pIC50

For orientation, consider the following solved cases.
Cc1cccc(C(=O)c2ccc(N(C(=O)C(C)Oc3ccccc3)c3c(F)cccc3F)nc2)c1 (centres unmarked): ≤ 5.00
NC(=O)C(c1cc(C(F)(F)F)cc(C(F)(F)F)c1)c1ccc(SCc2ccco2)nn1 (centres unmarked): 5.00 to 6.00
NC(=O)N(c1ccc(C#CCOc2c(Cl)cccc2Cl)cn1)c1c(F)cccc1F: ≤ 5.00
COCC(=O)N(c1ccc(C(=O)c2cccc(C)c2)cn1)c1c(F)cccc1F: 5.00 to 6.00
Cc1occc1C(=O)c1ccc(Nc2c(F)cccc2F)nc1: ≥ 6.00

Per the reported activated p38 (Homo sapiens, UniProt Q16539) data, Cc1cc(C(=O)c2ccc(Nc3c(F)cccc3F)nc2)ccc1Cl has pIC50 of ≥ 6.00

Let me check: O=C(c1ccc(N(C(=O)c2cccc(C(F)(F)F)c2)c2c(F)cccc2F)nc1)c1sccc1-n1cccc1 , system activated p38 (Homo sapiens, UniProt Q16539), measured pIC50 is ≥ 6.00

The measured pIC50 that Cc1cccc(C(=O)c2ccc(N(C(=O)c3ccccc3)c3c(F)cccc3F)nc2)c1 showed for activated p38 (Homo sapiens, UniProt Q16539) is 5.00 to 6.00

Reported activated p38 (Homo sapiens, UniProt Q16539) pIC50 for item O=C(c1ccc(Nc2c(F)cccc2F)nc1)c1cc(Cl)ccc1Cl was ≥ 6.00

Measured on activated p38 (Homo sapiens, UniProt Q16539), N#Cc1ccc(C(=O)c2ccc(Nc3c(F)cccc3F)nc2)cc1 has a documented pIC50 of 5.00 to 6.00

Value (pIC50, activated p38 (Homo sapiens, UniProt Q16539)) for record COC(=O)CCC(=O)N(c1ccc(C(=O)c2cccc(C)c2)cn1)c1c(F)cccc1F = 5.00 to 6.00

The compound Cc1cccc(C(=O)c2ccc(N(C(=O)c3ccc(F)c(C(F)(F)F)c3)c3c(F)cccc3F)nc2)c1 on activated p38 (Homo sapiens, UniProt Q16539): pIC50 was ≥ 6.00

* * *

Tested target: activated p38 (Homo sapiens)
Construct: amplify the coding region of CSBP2 cDNA using a HeLa cell library; made in house; host or cells: Trichoplusia ni (Tn-368) High-Five insect cells, baculovirus (virus generated in Sf9)
Experiment: p38 inhibition assay: inhibition of ATPase activity
Type: biochemical
Experimental parameters: ATPase activity of activated p38 (60 nM), various ATP concentrations
Procedure: B. Inhibition of ATPase Activity This assay is carried out in the presence of 10 mM MgCl2, 25 mM β-glycerophosphate, 10% glycerol and 100 mM HEPES buffer at pH 7.6. For a typical Ki determination, the Km for ATP in the ATPase activity of activated p38 reaction is determined in the absence of inhibitor and in the presence of two concentrations of inhibitor. […] The product of p38 ATPase activity, ADP, is quantified by HPLC analysis. […]
Reported property: Ki

Form field Ki, entry O=C(c1ccc(N(C(=O)OCc2ccccc2)c2c(F)cccc2F)nc1)c1ccccc1Cl : 1 to 10 µM
